Molecular target: Corticotropin-releasing factor receptor 1 (Rattus norvegicus)
Sequence (P35353 whole entry): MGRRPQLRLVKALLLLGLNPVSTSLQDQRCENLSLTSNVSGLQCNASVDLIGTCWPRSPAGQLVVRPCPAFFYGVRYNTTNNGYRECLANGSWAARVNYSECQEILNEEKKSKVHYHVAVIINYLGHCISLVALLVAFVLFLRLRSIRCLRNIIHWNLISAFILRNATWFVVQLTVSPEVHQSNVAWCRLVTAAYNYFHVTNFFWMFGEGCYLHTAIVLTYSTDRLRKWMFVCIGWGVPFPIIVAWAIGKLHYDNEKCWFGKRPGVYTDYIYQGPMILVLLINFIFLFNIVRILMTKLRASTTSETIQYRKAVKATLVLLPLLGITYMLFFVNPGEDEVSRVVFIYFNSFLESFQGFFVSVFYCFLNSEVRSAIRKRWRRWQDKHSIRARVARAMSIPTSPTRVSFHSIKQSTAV
Endpoint summary: pIC50, system: Corticotropin-releasing factor receptor 1 (Rattus norvegicus), multiple sources combined.
// scale note: pIC50 = -log10(conc_M); give the bare number

(Q) Tell me reported pIC50 for CCC(CC)Oc1cc(C)nc(Oc2c(C)cc(COC)cc2C)c1C , tested with Corticotropin-releasing factor receptor 1 (Rattus norvegicus).
(A) 8.49

(Q) Tell me reported pIC50 for C[C@H](C1CC1)n1cc(Cl)nc(Nc2c(Cl)cc(C#N)cc2Cl)c1=O , tested with Corticotropin-releasing factor receptor 1 (Rattus norvegicus).
(A) 8.62

(Q) Tell me reported pIC50 for COC[C@@H](C1CC1)n1nc(C)nc(Nc2c(Cl)cc(OC)cc2Cl)c1=O , tested with Corticotropin-releasing factor receptor 1 (Rattus norvegicus).
(A) 7.16

(Q) Tell me reported pIC50 for COCC(C1CC1)n1nc(C)nc(Nc2c(Cl)cc(OC)cc2Cl)c1=O (stereo not given) , tested with Corticotropin-releasing factor receptor 1 (Rattus norvegicus).
(A) 8.20

(Q) Tell me reported pIC50 for CCCC(CCC)n1cc(Cl)nc(Nc2c(C)cc(C)cc2C)c1=O , tested with Corticotropin-releasing factor receptor 1 (Rattus norvegicus).
(A) 8.62

(Q) Tell me reported pIC50 for CCOc1ccc(Nc2nc(C)nn([C@@H](COC)C3CC3)c2=O)c(C(F)(F)F)n1 , tested with Corticotropin-releasing factor receptor 1 (Rattus norvegicus).
(A) 8.62

(Q) Tell me reported pIC50 for COc1ccc(-c2c(C)nn3c(N(CCC#N)CCCF)nc(C)nc23)c(C)n1 , tested with Corticotropin-releasing factor receptor 1 (Rattus norvegicus).
(A) 8.19

(Q) Tell me reported pIC50 for C[C@H](C1CC1)n1cc(Cl)nc(Nc2c(Cl)cc(OC(F)(F)F)cc2Cl)c1=O , tested with Corticotropin-releasing factor receptor 1 (Rattus norvegicus).
(A) 8.19

(Q) Tell me reported pIC50 for COc1nc(C)c(Nc2nc(Cl)cn([C@H](COc3cc(C#N)ccn3)C3CC3)c2=O)cc1C , tested with Corticotropin-releasing factor receptor 1 (Rattus norvegicus).
(A) 8.17

(Q) Tell me reported pIC50 for CCC(CC)Nc1cc(C)nc2c1NC(=O)CN2c1ccc(Cl)cc1Cl , tested with Corticotropin-releasing factor receptor 1 (Rattus norvegicus).
(A) 6.70
